MEASUREMENT_PROTOCOL: LD50/MED ratio
Assay type: ADME
SETUP_CONDITIONS: read-out: Therapeutic index

>  <GIVEN_SMILES>
O=C(CCC1CCN(Cc2ccccc2)CC1)c1ccc2c(c1)NCCCC2

>  <selectivity ratio>
334

$$$$

* * *

TEST_TARGET: Acetylcholinesterase (Rattus norvegicus)
Sequence (P37136 whole entry): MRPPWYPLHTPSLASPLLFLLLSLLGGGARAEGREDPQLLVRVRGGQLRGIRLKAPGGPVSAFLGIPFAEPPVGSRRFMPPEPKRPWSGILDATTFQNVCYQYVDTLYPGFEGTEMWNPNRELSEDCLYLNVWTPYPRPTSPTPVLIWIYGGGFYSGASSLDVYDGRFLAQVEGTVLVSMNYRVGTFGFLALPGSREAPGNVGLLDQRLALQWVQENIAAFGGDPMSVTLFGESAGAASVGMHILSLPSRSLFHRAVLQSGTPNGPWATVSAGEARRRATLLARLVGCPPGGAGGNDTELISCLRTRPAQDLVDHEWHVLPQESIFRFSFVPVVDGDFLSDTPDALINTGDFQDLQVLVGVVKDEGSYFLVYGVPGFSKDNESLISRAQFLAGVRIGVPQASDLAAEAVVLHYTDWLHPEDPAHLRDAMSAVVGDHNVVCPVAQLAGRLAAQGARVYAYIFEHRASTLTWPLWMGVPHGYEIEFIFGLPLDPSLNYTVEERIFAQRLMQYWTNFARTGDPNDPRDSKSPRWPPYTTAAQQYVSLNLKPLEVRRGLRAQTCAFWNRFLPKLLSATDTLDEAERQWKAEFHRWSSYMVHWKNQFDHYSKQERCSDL
pIC50: −log10 of the molar value.
Everything with pIC50 lower than 7 is no; everything else, including exactly 7, is yes.

>  <GIVEN_SMILES>
CCCN1CCCCc2ccc(C(=O)CCC3CCN(Cc4ccccc4)CC3)cc21

>  <TEST_TARGET>
Acetylcholinesterase (Rattus norvegicus)

>  <LABEL_VALUE>
no

$$$$
>  <GIVEN_SMILES>
CCN1CCCCc2ccc(C(=O)CCC3CCN(Cc4ccccc4)CC3)cc21

>  <TEST_TARGET>
Acetylcholinesterase (Rattus norvegicus)

>  <LABEL_VALUE>
no

$$$$
>  <GIVEN_SMILES>
O=C(CCC1CCN(Cc2ccccc2F)CC1)c1ccc2c(c1)CCN2

>  <TEST_TARGET>
Acetylcholinesterase (Rattus norvegicus)

>  <LABEL_VALUE>
yes

$$$$
>  <GIVEN_SMILES>
COc1cccc(CN2CCC(CCC(=O)c3ccc4c(c3)NCCCC4)CC2)c1

>  <TEST_TARGET>
Acetylcholinesterase (Rattus norvegicus)

>  <LABEL_VALUE>
no

$$$$
>  <GIVEN_SMILES>
O=C(CCC1CCN(Cc2cccc(Cl)c2)CC1)c1ccc2c(c1)NCCCC2

>  <TEST_TARGET>
Acetylcholinesterase (Rattus norvegicus)

>  <LABEL_VALUE>
no

$$$$
>  <GIVEN_SMILES>
O=C(CCC1CCN(Cc2ccccc2)CC1)c1ccc2c(c1)N(Cc1ccccc1)CCCC2

>  <TEST_TARGET>
Acetylcholinesterase (Rattus norvegicus)

>  <LABEL_VALUE>
no

$$$$
>  <GIVEN_SMILES>
COc1ccccc1CN1CCC(CCC(=O)c2ccc3c(c2)NCCCC3)CC1

>  <TEST_TARGET>
Acetylcholinesterase (Rattus norvegicus)

>  <LABEL_VALUE>
no

$$$$
>  <GIVEN_SMILES>
O=C(CCC1CCN(Cc2cccc(Cl)c2)CC1)c1ccc2c(c1)CCN2

>  <TEST_TARGET>
Acetylcholinesterase (Rattus norvegicus)

>  <LABEL_VALUE>
yes

$$$$
>  <GIVEN_SMILES>
CN1CCCc2cc(C(=O)CCC3CCN(Cc4cccc(Cl)c4)CC3)ccc21

>  <TEST_TARGET>
Acetylcholinesterase (Rattus norvegicus)

>  <LABEL_VALUE>
yes

$$$$
>  <GIVEN_SMILES>
COc1ccccc1CN1CCC(CCC(=O)c2ccc3c(c2)CCN3)CC1

>  <TEST_TARGET>
Acetylcholinesterase (Rattus norvegicus)

>  <LABEL_VALUE>
no

$$$$
>  <GIVEN_SMILES>
O=C(CCC1CCN(Cc2ccccc2)CC1)c1ccc2c(c1)N(Cc1ccccc1)CC2

>  <TEST_TARGET>
Acetylcholinesterase (Rattus norvegicus)

>  <LABEL_VALUE>
no

$$$$
>  <GIVEN_SMILES>
O=C(CCC1CCN(Cc2cccc([N+](=O)[O-])c2)CC1)c1ccc2c(c1)NCCCC2

>  <TEST_TARGET>
Acetylcholinesterase (Rattus norvegicus)

>  <LABEL_VALUE>
no

$$$$
>  <GIVEN_SMILES>
O=C(CCC1CCN(Cc2ccc(Cl)cc2)CC1)c1ccc2c(c1)CCN2

>  <TEST_TARGET>
Acetylcholinesterase (Rattus norvegicus)

>  <LABEL_VALUE>
no

$$$$
>  <GIVEN_SMILES>
Cc1cccc(CN2CCC(CCC(=O)c3ccc4c(c3)NCCCC4)CC2)c1

>  <TEST_TARGET>
Acetylcholinesterase (Rattus norvegicus)

>  <LABEL_VALUE>
no

$$$$
>  <GIVEN_SMILES>
COc1cccc(CN2CCC(CCC(=O)c3ccc4c(c3)CCN4)CC2)c1

>  <TEST_TARGET>
Acetylcholinesterase (Rattus norvegicus)

>  <LABEL_VALUE>
no

$$$$
>  <GIVEN_SMILES>
O=C(CCC1CCN(Cc2ccc(F)cc2)CC1)c1ccc2c(c1)NCCCC2

>  <TEST_TARGET>
Acetylcholinesterase (Rattus norvegicus)

>  <LABEL_VALUE>
no

$$$$
>  <GIVEN_SMILES>
O=C(CCC1CCN(Cc2ccccc2)CC1)c1ccc2c(c1)N(Cc1ccccc1)CCC2

>  <TEST_TARGET>
Acetylcholinesterase (Rattus norvegicus)

>  <LABEL_VALUE>
no

$$$$
>  <GIVEN_SMILES>
O=C(CCC1CCN(Cc2cccc(Cl)c2)CC1)c1ccc2c(c1)CCCN2

>  <TEST_TARGET>
Acetylcholinesterase (Rattus norvegicus)

>  <LABEL_VALUE>
yes

$$$$
